Reference source for all entries: patent US12227501B2

Target: human CSNK1A1 (Homo sapiens (Human), UniProt P48729)
Sequence (P48729 whole entry): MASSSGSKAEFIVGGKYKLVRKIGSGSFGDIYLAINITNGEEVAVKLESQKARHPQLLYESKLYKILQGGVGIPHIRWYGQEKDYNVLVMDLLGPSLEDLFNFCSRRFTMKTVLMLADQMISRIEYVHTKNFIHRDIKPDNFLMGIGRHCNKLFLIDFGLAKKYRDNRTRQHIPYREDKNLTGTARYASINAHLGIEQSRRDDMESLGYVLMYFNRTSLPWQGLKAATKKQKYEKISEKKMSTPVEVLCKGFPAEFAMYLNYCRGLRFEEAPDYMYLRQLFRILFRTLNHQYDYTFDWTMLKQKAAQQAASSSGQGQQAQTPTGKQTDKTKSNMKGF
Assay: CSNK1A1 Assay 2 (ADP-Glo, 1 μM ATP)
Format: biochemical
Conditions: substrate biotin-Ahx-KRRRAL-pS-VASLPGL, read-out: CSNK1A1 Assay 2 IC50 [mol/l] (median)
Mark each entry 1 if its IC50 sits below 10 nM, and 0 for all others.

Input line: Does CC1(C)Cc2[nH]c(-c3ccnc(NC(=O)C(CC(F)F)c4ccc(S(C)(=O)=O)cc4)c3)c(Nc3ccccc3)c2C(=O)N1 (racemic) have IC50 strictly under 10 nM?
Output line: 1

====

Listing of recorded IC50 by entry.
Target: human CSNK1A1 (Homo sapiens (Human), UniProt P48729)
Test: CSNK1A1 Assay 2 (ADP-Glo, 1 μM ATP)
Assay type: biochemical
Conditions: substrate biotin-Ahx-KRRRAL-pS-VASLPGL, read-out: CSNK1A1 Assay 2 IC50 [mol/l] (median)
Dear colleague, please return just the value in nM, with no unit written.

Some compounds with known IC50 results, for comparison:
CC1Cc2[nH]c(-c3ccnc(NC(=O)C(CC(F)F)c4ccc(F)cc4)c3)c(Nc3ccccc3F)c2C(=O)N1C (single isomer, unassigned; (-)) [Example 107]
45.7
Cc1ccccc1Nc1c(-c2ccnc(NC(=O)C(CC(F)F)c3ccc(F)cc3)c2)[nH]c2c1C(=O)NC(C)(C)C2 (racemic) [Example 135]
25.8
CC1Cc2[nH]c(-c3ccnc(NC(=O)Cc4ccc(F)cc4)c3)c(Nc3ccccc3)c2C(=O)N1C (single isomer, unassigned; (-)) [Example 90]
1.43
Cc1ccccc1Nc1c(-c2ccnc(NC(=O)C(CC(F)F)c3ccc(F)cc3)c2)[nH]c2c1C(=O)NC1(CCC1)C2 (single isomer, unassigned; enantiomer 1) [Example 144]
80.7
CC(C(=O)Nc1cc(-c2[nH]c3c(c2Nc2ccccc2)C(=O)N(C)C(C)C3)ccn1)c1ccc(F)cc1 (single isomer, unassigned; (-)) [Example 93]
47.2

Input line: I would be grateful if you could share the reported IC50 for CC(C(=O)Nc1cc(-c2[nH]c3c(c2Nc2ccccc2)C(=O)N(C)C(C)C3)ccn1)c1ccc(F)cc1 (single isomer, unassigned; (+)) [Example 91] .
Output line: 4.73

Input line: Also CC(C(=O)Nc1cc(-c2[nH]c3c(c2Nc2ccccc2F)C(=O)N(C)CC3)ccn1)c1ccc(F)cc1 (single isomer, unassigned) [Example 42] ?
Output line: 2.4

Input line: Also CC(C(=O)Nc1cc(-c2[nH]c3c(c2Nc2ccccc2)C(=O)N(C)CC3)ccn1)c1ccc(Cl)cc1 (single isomer, unassigned; (-)) [Example 80] ?
Output line: 24.1

Input line: Also CC(C(=O)Nc1cc(-c2[nH]c3c(c2Nc2ccccc2Cl)C(=O)NCC3)ccn1)c1ccc(F)cc1 (single isomer, unassigned) [Example 16] ?
Output line: 2.57

Input line: Also CCC(C(=O)Nc1cc(-c2[nH]c3c(c2Nc2ccccc2)C(=O)N(C)CC3)ccn1)c1ccc(F)cc1 (racemic) [Example 75] ?
Output line: 5.49
